Test system: native tau aggregates
protocol.description: TAU radioligand in vitro displacement assay ([3H]T808, autoradiography on human AD brain sections)
Type: binding
assay.context: compound 10 nM, radioligand [3H]T808 10 nM
outcome.measure: % displacement of [3H]T808 (10 nM) at 10 nM (%)

Sample records with % displacement of [3H]T808 (10 nM) at 10 nM:
• CO[C@@H]1CCN(c2ccn3cc(-c4ccc(C)cc4)nc3c2)C1 = 28
• Cc1cccc(-c2cn3ccc(N4CCOCC4)cc3n2)c1 = 27
• CNc1ccn2cc(-c3ccc(N4CCC(F)CC4)cc3)nc2c1 = 35

(1) CO[C@H]1CCN(c2ccn3cc(-c4cccc(C)c4)nc3c2)C1
(2) COc1cc(-c2cn3ccc(NCCF)cc3n2)ccc1C
Pick one, 1 or 2 : lowest reported % displacement of [3H]T808 (10 nM) at 10 nM. Refer to your chosen entry by its label in the reply.
1
(1: 8%, 2: 14%)

* * *

System: native tau aggregates
protocol.description: TAU radioligand in vitro displacement assay ([3H]T808, autoradiography on human AD brain sections)
Assay type: binding
assay.context: compound 10 nM, radioligand [3H]T808 10 nM
outcome.measure: % displacement of [3H]T808 (10 nM) at 10 nM (%)

(1) CC(=O)O.COc1cccc(-c2cn3ccc(N(C)CCF)cc3n2)c1
(2) CNc1ccn2cc(-c3ccc(C)o3)nc2c1
Task for the reader: decide whether 1 or 2 has the larger % displacement of [3H]T808 (10 nM) at 10 nM. Refer to your chosen entry by its label in the reply.
2
(2: 58%, 1: 32%)

* * *

Test system: native tau aggregates
protocol.description: TAU radioligand in vitro displacement assay ([3H]T808, autoradiography on human AD brain sections)
Assay type: binding
assay.context: compound 10 nM, radioligand [3H]T808 10 nM
outcome.measure: % displacement of [3H]T808 (10 nM) at 10 nM (%)

(1) CNc1ccn2cc(-c3ccsc3)nc2c1 [Example 100]
(2) Cc1cccc(-c2cn3ccc(N4CCC4)cc3n2)c1 [Example 55]
Pick one, 1 or 2 : lowest reported % displacement of [3H]T808 (10 nM) at 10 nM. Refer to your chosen entry by its label in the reply.
2

(A) CNc1ccn2cc(-c3ccc(OC)c(F)c3)nc2c1 [Example 95]
(B) CO[C@H]1CCN(c2ccn3cc(-c4ccccc4)nc3c2)C1 [Example 59]
(C) FCCNc1ccn2cc(-c3ccc(OCF)cc3)nc2c1 [Example 50]
Give the ascending ranking of the items by reported % displacement of [3H]T808 (10 nM) at 10 nM. Write the labels in rank order as requested.
C, B, A
(C: 20%, B: 36%, A: 55%)

* * *

Test system: native tau aggregates
protocol.description: TAU radioligand in vitro displacement assay ([3H]T808, autoradiography on human AD brain sections)
Type: binding
assay.context: compound 10 nM, radioligand [3H]T808 10 nM
outcome.measure: % displacement of [3H]T808 (10 nM) at 10 nM (%)

Sample records with % displacement of [3H]T808 (10 nM) at 10 nM:
* CN(CCF)c1ccn2cc(-c3ccc4c(c3)OCO4)nc2c1 | 42
* CNc1ccn2cc(-c3cc4ccccc4o3)nc2c1 | 47
* COc1ccc(-c2cn3ccc(N4CCC4)cc3n2)cc1 | 54
* CNc1ccn2cc(-c3nc4ccccc4n3C)nc2c1 | 19

(1) CNc1ccn2cc(-c3sccc3Cl)nc2c1
(2) CNc1ccn2cc(-c3cccc(C)c3)nc2c1
Pick one, 1 or 2 : lowest reported % displacement of [3H]T808 (10 nM) at 10 nM. Refer to your chosen entry by its label in the reply.
1
